These measurements were taken from PubChem BioAssay AID1599.

System: C. elegans polyQ-huntingtin mechanosensory neurons, touch response
test_protocol: rescue of polyQ-huntingtin neuronal dysfunction in worms, whole organism, C. elegans mechanosensory neurons, N-terminal huntingtin (AID 1599)
measured_attribute: pEC50
In simple prose, pEC50 is minus the logarithm base ten of a concentration in moles per litre.

## Input Data request, read-out pEC50, for Cc1cc(O)cc(C)c1Cl
## Output 5.48

## Input Data request, read-out pEC50, for Clc1ccc(COC(Cn2ccnc2)c2ccc(Cl)cc2Cl)cc1 (stereo unspecified)
## Output 5.52

## Input Data request, read-out pEC50, for CN1CCN(C2=Nc3cc(Cl)ccc3Nc3ccccc32)CC1
## Output 5.36

## Input Data request, read-out pEC50, for CN(C)CCCN1c2ccccc2CCc2ccc(Cl)cc21
## Output 4.55

## Input Data request, read-out pEC50, for CNc1ccc2oc(C[C@@H]3OC4(CC[C@@H]3C)O[C@H](C(C)C(=O)c3ccc[nH]3)[C@H](C)C[C@H]4C)nc2c1C(=O)O (stereo partly specified)
## Output 5.26

## Input Data request, read-out pEC50, for CC(C)(C)c1ccc(C(O)CCCN2CCC(C(O)(c3ccccc3)c3ccccc3)CC2)cc1 (stereo unspecified)
## Output 6.05

## Input Data request, read-out pEC50, for O=c1oc2ccccc2c(O)c1Cc1c(O)c2ccccc2oc1=O
## Output 5.38

## Input Data request, read-out pEC50, for C=Cc1c(C)c2cc3[nH]c(cc4nc(cc5nc(cc1[nH]2)C(C)=C5CCC(=O)O)C(CCC(=O)O)=C4C)c(C)c3C=C
## Output 8.30

## Input Data request, read-out pEC50, for CC1=NN(c2ccccc2)C(=O)C1
## Output 7.80

## Input Data request, read-out pEC50, for O=C1c2ccc(O)c(O)c2C(=O)c2c(O)ccc(O)c21
## Output 5.55

## Input Data request, read-out pEC50, for Oc1c(Cl)cc(Cl)c2cccnc12
## Output 5.52

## Input Data request, read-out pEC50, for Clc1ccc(C(OCCN2CCCCC2)c2ccccc2)cc1 (stereo unspecified)
## Output 4.55

## Input Data request, read-out pEC50, for CN1CCC(=C2c3ccccc3Sc3ccccc32)CC1
## Output 4.62

## Input Data request, read-out pEC50, for COc1ccc2cc(CCC(C)=O)ccc2c1
## Output 5.00

## Input Data request, read-out pEC50, for CC(C)NNC(=O)c1ccncc1
## Output 4.80

## Input Data request, read-out pEC50, for CC1=C2C(=CO[C@H](C)[C@H]2C)C(=O)C(C(=O)O)=C1O
## Output 4.40

====

System: C. elegans polyQ-huntingtin mechanosensory neurons, touch response
test_protocol: rescue of polyQ-huntingtin neuronal dysfunction in worms, whole organism, C. elegans mechanosensory neurons, N-terminal huntingtin (AID 1599)
pEC50: −log10 of the molar value.
Decide using pEC50: a value greater than or equal to 6 is class 1, a smaller one is class 0.

## Input hey, is pEC50 for this one >= 6? CCCCNc1ccc(C(=O)OCCN(C)C)cc1
## Output class 0

## Input hey, is pEC50 for this one >= 6? CC(=O)OCC1=C(C(=O)O)N2C(=O)[C@@H](NC(=O)CCCC(N)C(=O)O)C2SC1 (stereo not given in full)
## Output class 0

## Input hey, is pEC50 for this one >= 6? CNCCC=C1c2ccccc2CCc2ccccc21
## Output class 0

## Input hey, is pEC50 for this one >= 6? COc1ccc(Cl)cc1C(=O)NCCc1ccc(S(=O)(=O)NC(=O)NC2CCCCC2)cc1
## Output class 0

## Input hey, is pEC50 for this one >= 6? Cc1cc2cc3c(C)cc(=O)oc3c(C)c2o1
## Output class 0

## Input hey, is pEC50 for this one >= 6? CCn1cc(C(=O)O)c(=O)c2cc3c(cc21)OCO3
## Output class 0

## Input hey, is pEC50 for this one >= 6? C[C@@]1(C(=O)O)CC[C@]2(C)CC[C@]3(C)C4=CC=C5C=C(O)C(=O)C=C5[C@]4(C)CC[C@@]3(C)[C@@H]2C1
## Output class 1

## Input hey, is pEC50 for this one >= 6? O=c1c2ccccc2[se]n1-c1ccccc1
## Output class 1
